target.or.test.system: HDAC8 (Homo sapiens (Human), UniProt Q9BY41)
Sequence (Q9BY41 whole entry): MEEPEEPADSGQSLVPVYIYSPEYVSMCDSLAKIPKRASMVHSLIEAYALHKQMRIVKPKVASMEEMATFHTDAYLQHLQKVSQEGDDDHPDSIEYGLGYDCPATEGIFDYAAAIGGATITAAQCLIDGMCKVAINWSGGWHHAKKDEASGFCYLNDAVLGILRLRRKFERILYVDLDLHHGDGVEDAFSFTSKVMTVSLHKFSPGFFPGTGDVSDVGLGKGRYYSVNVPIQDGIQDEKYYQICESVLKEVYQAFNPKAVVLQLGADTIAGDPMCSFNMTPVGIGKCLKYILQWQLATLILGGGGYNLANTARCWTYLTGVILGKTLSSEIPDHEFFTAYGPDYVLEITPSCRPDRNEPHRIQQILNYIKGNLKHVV
assay.text: Enzymatic screening, HDAC8 inhibition
Assay type: biochemical
outcome.measure: IC50 (µM)
Number only, in µM; omit the unit.

FC(F)c1nnc(-c2ccc(Cn3cnc(-c4ccc(NC5=NCCN5)cc4)c3)nc2)o1 [compound 20]
578

Continue with the next molecule.
Returns the measured IC50 for the input molecule. Input: O=C1Nc2ccc(-c3cn(Cc4ccc(-c5nnc(C(F)F)o5)cn4)nn3)cc2C12CCNCC2 [Compd. 19]
572

---

Known residual percentage in HUMAN PLASMA of a selection of compounds
assay.text: Stability in human plasma
reported.conditions: after 4 hours, 37° C.
Mention the unit after the number when you answer.

Nc1nc2ccc(-c3cn(Cc4ccc(-c5nnc(C(F)F)o5)cn4)nn3)cc2[nH]1 [Compd. 30]
87%
COc1ccc(-c2nnn(Cc3ccc(-c4nnc(C(F)F)o4)cc3)n2)cc1OC [compound 128]
96%
O=C(Nc1cccc(-c2cn(Cc3ccc(-c4nnc(C(F)F)o4)c(F)c3)nn2)c1)N1CCOCC1 [compound 16]
75%

Continue with the next compound.
Returns the measured residual percentage in HUMAN PLASMA for the input compound. Input: O=C1Nc2ccc(-c3cn(Cc4ccc(-c5nnc(C(F)F)o5)cn4)nn3)cc2NC12CCNCC2 [compound 36]
78%
